Biological target: FAAH (Mus musculus)
Construct: For gel based ABPP experiments mouse brain proteome (2.0 mg/mL, 20 µL) was preincubated; from tissue; host or cells: mouse brain proteome
Sequence (O08914 1-579): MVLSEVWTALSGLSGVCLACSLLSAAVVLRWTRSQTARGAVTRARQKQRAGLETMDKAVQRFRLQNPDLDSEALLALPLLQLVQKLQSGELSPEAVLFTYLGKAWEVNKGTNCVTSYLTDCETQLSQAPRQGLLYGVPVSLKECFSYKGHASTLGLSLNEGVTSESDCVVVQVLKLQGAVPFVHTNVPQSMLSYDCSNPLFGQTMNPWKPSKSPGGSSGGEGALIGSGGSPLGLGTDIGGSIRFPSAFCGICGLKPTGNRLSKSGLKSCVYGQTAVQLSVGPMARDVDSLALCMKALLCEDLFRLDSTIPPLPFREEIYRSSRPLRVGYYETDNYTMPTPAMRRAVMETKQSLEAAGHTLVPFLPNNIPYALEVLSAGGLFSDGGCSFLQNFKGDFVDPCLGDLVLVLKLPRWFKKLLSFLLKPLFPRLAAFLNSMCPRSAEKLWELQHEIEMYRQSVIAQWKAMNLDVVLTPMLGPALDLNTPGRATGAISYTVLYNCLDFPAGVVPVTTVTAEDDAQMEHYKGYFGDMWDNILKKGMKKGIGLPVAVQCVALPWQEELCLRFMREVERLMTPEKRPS
Assay: Gel based competitive ABPP selectivity assay with TAMRA-FP in mouse brain proteome (FAAH band)
Type: biochemical
Settings: 10 µM inhibitor; TAMRA-FP 500 nM; mouse brain proteome; vehicle set to 100%
measured.quantity: FAAH ABPP (10 µm) % Eff.

Prompt line: Find the measured FAAH ABPP (10 µm) % Eff.: item O=C(CCCCCc1ccccc1)c1nc2ncccc2o1 [Compound 1, reference compound] , target or system FAAH (Mus musculus).
Response line: 99%

These data points were gathered from patent EP3095787A1.
